- System: SK-MEL-5
- Test Description: NCI tumour cell line growth inhibition, 48 h
Calls of active or inactive are those of the source. No stated cut-off is given here; in the data, active = GI50 up to about 1.1 µM and inactive = higher.
Measured GI50 of individual entries

Solved entries (count: 5):
Specify GI50 for CCCC(C)NC1=C(NC(C)=O)C(=O)c2ccccc2C1=O (stereo unspecified) , system SK-MEL-5.
73.8 µM (inactive)

Specify GI50 for O=C1C(=Cc2ccc(O)cc2)N=C(c2ccccc2)N1n1c(-c2ccccc2)nc2ccccc2c1=O , system SK-MEL-5.
> 100 µM (inactive)

Specify GI50 for O=C(N/N=C/c1ccc([N+](=O)[O-])cc1)c1cccc2nc3ccccc3nc12 , system SK-MEL-5.
2.07 µM (inactive)

Specify GI50 for CCS/C(=N\c1ccccc1)SC , system SK-MEL-5.
> 100 µM (inactive)

Specify GI50 for O=C(O)c1nn[nH]c1S , system SK-MEL-5.
> 100 µM (inactive)

Now for the molecule whose GI50 we want.
Specify GI50 for CC(=O)OC1COC(N2C(=O)C(=O)c3ccccc32)C(OC(C)=O)C1OC(C)=O (stereo unspecified) , system SK-MEL-5.
> 100 µM (inactive)
